ASSAYED SYSTEM: Histone deacetylase 8 (Homo sapiens, UniProt Q9BY41)
Sequence (Q9BY41 whole entry): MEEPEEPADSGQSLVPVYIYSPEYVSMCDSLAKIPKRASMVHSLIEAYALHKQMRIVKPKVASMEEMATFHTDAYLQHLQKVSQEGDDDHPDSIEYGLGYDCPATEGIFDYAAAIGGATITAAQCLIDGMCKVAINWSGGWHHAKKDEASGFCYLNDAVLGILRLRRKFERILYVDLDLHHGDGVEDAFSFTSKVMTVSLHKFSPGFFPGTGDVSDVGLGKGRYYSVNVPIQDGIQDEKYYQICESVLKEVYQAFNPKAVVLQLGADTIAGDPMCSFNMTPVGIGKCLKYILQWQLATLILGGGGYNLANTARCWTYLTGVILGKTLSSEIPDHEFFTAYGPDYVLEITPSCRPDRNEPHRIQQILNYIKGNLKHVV
Would you kindly list pIC50 for each of these compounds?
Give bare numbers, as −log10 of the molar value.

Some solved entries appear below for comparison.
COc1ccc(NC(=O)[C@@H]2Cc3ccc(OCC(=O)NO)cc3CN2C(=O)[C@H](C)N)cc1
5.89
CC[C@H](C)[C@H](NC(=O)[C@@H]1CCCN1)C(=O)N1Cc2cc(OCC(=O)NO)ccc2C[C@H]1C(=O)Nc1ccc(OC)cc1.Cl
7.33
COc1ccc(NC(=O)[C@@H]2Cc3ccc(OCC(=O)NO)cc3CN2C(=O)Cc2ccccc2)cc1
6.85
COc1ccc(NC(=O)[C@@H]2Cc3ccc(OCC(=O)NO)cc3CN2C(=O)[C@H](Cc2ccc(O)cc2)NC(=O)OC(C)(C)C)cc1
6.76
COc1ccc(NC(=O)[C@@H]2Cc3ccc(OCC(=O)NO)cc3CN2C(=O)CNC(=O)OC(C)(C)C)cc1
6.29
COc1ccc(NC(=O)[C@@H]2Cc3ccc(OCC(=O)NO)cc3CN2C(=O)[C@H](C)NC(=O)OC(C)(C)C)cc1
6.74

Okay, next one:
Q: So what does the record say about pIC50 for COc1ccc(NC(=O)[C@@H]2Cc3ccc(OCC(=O)NO)cc3CN2C(=O)CN)cc1 ?
A: 5.67

====

System: HeLa
EXPERIMENT: Cytotoxicity against human HeLa cells after 48 hrs by MTT assay
Format: functional, cell-based
pIC50: −log10 of the molar value.
Please note: 1 applies when pIC50 is 4 or greater, and -1 applies otherwise.

CC[C@H](C)[C@@H](CN1Cc2cc(OCC(=O)NO)ccc2C[C@H]1C(=O)Nc1ccc(OC)cc1)NC(=O)CC(C)(C)C
1
CC[C@H](C)[C@H](NC(=O)[C@@H]1CCCN1C(=O)OC(C)(C)C)C(=O)N1Cc2cc(OCC(=O)NO)ccc2C[C@H]1C(=O)Nc1ccc(OC)cc1
-1
CC[C@H](C)[C@H](NC(=O)C1CCN(C(=O)OC(C)(C)C)CC1)C(=O)N1Cc2cc(OCC(=O)NO)ccc2C[C@H]1C(=O)Nc1ccc(OC)cc1
-1
CC[C@H](C)[C@H](NC(=O)[C@@H]1CCCN1)C(=O)N1Cc2cc(OCC(=O)NO)ccc2C[C@H]1C(=O)Nc1ccc(OC)cc1.Cl
-1
CC[C@H](C)[C@H](NC(=O)OC(C)(C)C)C(=O)N1Cc2cc(OCC(=O)NO)ccc2C[C@H]1C(=O)Nc1ccc(OC)cc1
1
CC[C@H](C)[C@@H](CN1Cc2cc(OCC(=O)NO)ccc2C[C@H]1C(=O)Nc1ccc(OC)cc1)NC(=O)OC(C)(C)C
1

Q: Textbook exercise: given the entry CC[C@H](C)[C@H](NC(=O)[C@@H](NC(=O)OC(C)(C)C)C(C)C)C(=O)N1Cc2cc(OCC(=O)NO)ccc2C[C@H]1C(=O)Nc1ccc(OC)cc1 , state whether its pIC50 is greater than or equal to 4.
A: -1

====

ASSAYED SYSTEM: Protein deacetylase HDAC6 (Homo sapiens)
Sequence (Q9UBN7 whole entry): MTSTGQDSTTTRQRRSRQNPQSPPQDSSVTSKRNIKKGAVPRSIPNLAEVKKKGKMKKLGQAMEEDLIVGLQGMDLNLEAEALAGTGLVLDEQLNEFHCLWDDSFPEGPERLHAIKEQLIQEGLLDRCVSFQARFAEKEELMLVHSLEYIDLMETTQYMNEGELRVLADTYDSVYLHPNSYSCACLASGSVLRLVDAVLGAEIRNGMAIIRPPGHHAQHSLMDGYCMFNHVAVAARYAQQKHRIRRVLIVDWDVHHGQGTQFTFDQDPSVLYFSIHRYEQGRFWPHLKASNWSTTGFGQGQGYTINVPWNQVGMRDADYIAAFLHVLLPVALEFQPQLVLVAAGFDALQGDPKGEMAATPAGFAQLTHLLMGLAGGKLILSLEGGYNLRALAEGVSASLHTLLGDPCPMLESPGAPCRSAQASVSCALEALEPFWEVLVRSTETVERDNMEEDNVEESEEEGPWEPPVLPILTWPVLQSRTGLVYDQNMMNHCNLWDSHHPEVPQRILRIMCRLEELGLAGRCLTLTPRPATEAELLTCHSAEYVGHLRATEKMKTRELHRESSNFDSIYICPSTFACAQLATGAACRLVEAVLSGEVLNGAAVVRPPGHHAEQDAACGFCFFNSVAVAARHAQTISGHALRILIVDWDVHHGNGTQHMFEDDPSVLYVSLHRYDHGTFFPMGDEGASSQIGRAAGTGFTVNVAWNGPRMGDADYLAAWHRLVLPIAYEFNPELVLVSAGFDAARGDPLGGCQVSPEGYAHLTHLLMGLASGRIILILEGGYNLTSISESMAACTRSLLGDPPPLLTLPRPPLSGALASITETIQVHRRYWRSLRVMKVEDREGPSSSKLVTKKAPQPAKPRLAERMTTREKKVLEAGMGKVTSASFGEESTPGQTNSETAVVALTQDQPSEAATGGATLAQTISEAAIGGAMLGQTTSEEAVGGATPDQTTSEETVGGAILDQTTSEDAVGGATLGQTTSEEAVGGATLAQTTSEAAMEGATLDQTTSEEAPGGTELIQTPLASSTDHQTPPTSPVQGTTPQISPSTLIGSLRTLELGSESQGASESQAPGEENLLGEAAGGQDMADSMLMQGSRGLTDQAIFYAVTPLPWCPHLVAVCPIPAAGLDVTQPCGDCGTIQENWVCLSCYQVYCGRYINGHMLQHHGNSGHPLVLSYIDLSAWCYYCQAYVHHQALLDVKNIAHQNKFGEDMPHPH
EXPERIMENT: Inhibition of HDAC6 in human HeLa cell nuclear extract after 30 mins by fluorescence microplate reader
REPORTED PROPERTY: IC50 (nM)
Answers are plain numbers, in nM.

Some solved entries appear below for comparison.
CC[C@H](C)[C@H](NC(=O)C1CCN(C(=O)OC(C)(C)C)CC1)C(=O)N1Cc2cc(OCC(=O)NO)ccc2C[C@H]1C(=O)Nc1ccc(OC)cc1
164
CC[C@H](C)[C@H](NC(=O)[C@@H](NC(=O)OC(C)(C)C)C(C)C)C(=O)N1Cc2cc(OCC(=O)NO)ccc2C[C@H]1C(=O)Nc1ccc(OC)cc1
116
CC[C@H](C)[C@@H](CN1Cc2cc(OCC(=O)NO)ccc2C[C@H]1C(=O)Nc1ccc(OC)cc1)NC(=O)CC(C)(C)C
158
CC[C@H](C)[C@H](NC(=O)[C@@H]1CCCN1C(=O)OC(C)(C)C)C(=O)N1Cc2cc(OCC(=O)NO)ccc2C[C@H]1C(=O)Nc1ccc(OC)cc1
141
CC[C@H](C)[C@H](NC(=O)[C@@H]1CCCN1)C(=O)N1Cc2cc(OCC(=O)NO)ccc2C[C@H]1C(=O)Nc1ccc(OC)cc1.Cl
191

Okay, next one:
Q: So what does the record say about IC50 for CC[C@H](C)[C@H](NC(=O)[C@@H](N)C(C)C)C(=O)N1Cc2cc(OCC(=O)NO)ccc2C[C@H]1C(=O)Nc1ccc(OC)cc1.Cl ?
A: 163

Attribution: ChEMBL document CHEMBL1795318
